Ref: PubChem BioAssay (NCI)

- Test system: MOLT-4 leukemia
- ASSAY_PROCEDURE: NCI tumour cell line growth inhibition, 48 h; in the data active = GI50 below about 0.43 µM; inactive = the rest
Answer with one of the outcomes given here: active, inactive

Exercise: # lookup: test call for C[C@@H]1C/C=C\C(=O)O[C@H](/C=C/C#C/C=C/C(C)(C)[C@@H](O)c2cccc(O)c2Br)[C@@H](C)/C=C/[C@H](C)C[C@H](OC(N)=O)C1
Solution: active

Exercise: Just curious, what result did COc1ccc(C2ONC3=NCCN32)cc1 (configuration not stated) get here?
Solution: inactive

Exercise: Each compound tested received a call. Report the one for c1cnc2[nH]cc(-c3csc(-c4cn(CCCN5CCCCC5)c5ccccc45)n3)c2c1 .
Solution: inactive

Exercise: Which outcome was assigned to C/C(=N\n1c(N)c(C#N)c(-c2ccc(Cl)cc2)c(C#N)c1=O)c1ccncc1 in this test?
Solution: inactive

Exercise: Given C1=C2CNCC3=Cc4ccc5ccccc5c4OC23Oc2c1ccc1ccccc21 , state the outcome it received in this test.
Solution: inactive

Exercise: Record request — test call for CC12OC(C(=O)C13CCC3)C1C(=O)c3ccccc3C(=O)C12 (configuration not stated)
Solution: inactive

Exercise: Status in this test for Fc1cc(-c2nnc3n2N=C(c2ccc(Cl)cc2Cl)CS3)c(Cl)cc1Cl ?
Solution: inactive

Exercise: Name the outcome recorded for CCN(CC)CCOc1ccc(/C=C2\CC3C4CC=C5C[C@@H](OC(C)=O)CC[C@]5(C)C4CC[C@]3(C)C2=O)cc1OC (some centres not stated) in the assay.
Solution: inactive

Exercise: Short answer needed: outcome of this test for Cc1ccc(-n2c3c(c4c(CN5CCOCC5)c(O)ccc42)CCc2ccccc2C3=O)cc1 ?
Solution: inactive

Exercise: Tell me the assay call for Cn1cnc([N+](=O)[O-])c1Sc1nc(N)nc2nc[nH]c12 please.
Solution: inactive

Exercise: # outcome recorded in this test, key = CCCn1cnc2c(SCc3ccccc3)nc(N)nc21
Solution: inactive

Exercise: // outcome(item) with item = CN(C)C/C=C/C(=O)Nc1ccc(C(=O)N2CCC[C@@H](Nc3ncc(Cl)c(-c4c[nH]c5ccccc45)n3)C2)cc1
Solution: active
